Taken from patent US20230365592A1.

AC50 by entry:
Biological target: human PAH with the R408W mutation (Homo sapiens, UniProt P00439, R408W)
Construct: expressed in transfected cells
Assay: Cell Based Phenylalanine Flux Assay
Details: A375 cells expressing human R408W PAH; 24 hrs compound incubation; 13C-Tyrosine by LC-MS; average where tested multiple times; read-out: AC50

Input: Tell me the measured AC50 of Cc1ccc2cc([C@H]3c4nc[nH]c4CCN3C(=O)c3nnc(C4CC4)o3)nn2c1 [Example 967] , please.
Output: > 5000 nM

Input: // same read-out, input: O=C(c1nnc(-c2cnn(C(F)(F)F)c2)o1)N1CCc2[nH]cnc2[C@H]1c1cc2c(Cl)cccn2n1 [Example 1504]
Output: < 500 nM

Input: // same read-out, input: Cn1nc(Cl)nc1C(=O)N1CCc2[nH]cnc2[C@H]1c1cc2cccc(Cl)n2n1 [Example 1142]
Output: < 500 nM

Input: // same read-out, input: COc1ccc2c(C(=O)N3CCc4[nH]cnc4[C@@H]3c3cc4cccc(C)n4n3)cnn2c1 [Example 1719]
Output: 1000 to 5000 nM

###

Biological target: human PAH with the R408W mutation (Homo sapiens, UniProt P00439, R408W)
Construct: expressed in transfected cells
Test: Cell Based Phenylalanine Flux Assay
Settings: A375 cells expressing human PAH R408W; 24 hrs compound incubation; 13C-Tyrosine by LC-MS; average where tested multiple times; read-out: AC50
result type: AC50

Below are worked cases with known answers.
O=C(c1cnc(-c2ccccn2)o1)N1CCc2[nH]cnc2[C@H]1c1cc2c(C(F)F)cccn2n1 :: 0.5 to 1 µM
Cn1cc(-c2ccc3c(C(=O)N4CCc5[nH]cnc5[C@@H]4c4cc5c(F)cccn5n4)cnn3c2)cn1 :: > 5 µM
O=C(c1cnc(C2CC2)o1)N1CCc2[nH]cnc2[C@H]1c1cc2ccccn2n1 :: 1 to 5 µM
Fc1cccc(N2CCc3[nH]cnc3[C@H]2c2cc3c(F)cccn3n2)n1 :: < 0.5 µM
CC(C)(C)c1ncc(C(=O)N2CCc3[nH]cnc3[C@H]2c2cc3c(C(F)(F)F)cccn3n2)o1 :: < 0.5 µM

Input: Tell me the measured AC50 of FC(F)c1cccn2nc([C@H]3c4nc[nH]c4CCN3c3ccc(C(F)(F)F)cn3)cc12 , please.
Output: > 5 µM

Input: // same read-out, input: Cc1ncccc1-c1nnc(N2CCc3[nH]cnc3[C@@H]2c2cc3cccc(C)n3n2)o1
Output: > 5 µM

Input: // same read-out, input: Cc1cccnc1-c1nnc(N2CCc3[nH]cnc3[C@@H]2c2cc3c(C(F)(F)F)cccn3n2)o1
Output: > 5 µM

Input: // same read-out, input: CC(C)(F)c1nnc(C(=O)N2CCc3[nH]cnc3[C@H]2c2cc3c(C4CC4)cccn3n2)o1
Output: 0.5 to 1 µM

Input: // same read-out, input: Cc1cccnc1-c1nnc(N2CCc3[nH]cnc3[C@H]2c2cc3c(C(F)(F)F)cccn3n2)o1
Output: < 0.5 µM

###

Biological target: human PAH with the R408W mutation (Homo sapiens, UniProt P00439, R408W)
Construct: expressed in transfected cells
Sequence (P00439 1-452 R408W): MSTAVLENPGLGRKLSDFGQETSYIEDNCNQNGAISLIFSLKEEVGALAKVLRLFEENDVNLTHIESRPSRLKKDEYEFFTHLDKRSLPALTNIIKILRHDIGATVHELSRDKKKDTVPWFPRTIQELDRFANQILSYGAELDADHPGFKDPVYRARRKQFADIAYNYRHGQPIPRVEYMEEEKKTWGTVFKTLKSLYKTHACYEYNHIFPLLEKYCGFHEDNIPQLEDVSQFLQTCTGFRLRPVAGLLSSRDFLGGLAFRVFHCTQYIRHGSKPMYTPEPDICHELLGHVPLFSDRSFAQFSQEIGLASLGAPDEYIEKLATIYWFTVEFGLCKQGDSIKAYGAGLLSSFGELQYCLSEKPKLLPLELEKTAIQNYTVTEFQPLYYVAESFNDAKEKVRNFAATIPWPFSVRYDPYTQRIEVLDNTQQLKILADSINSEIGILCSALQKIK
Test: Cell Based Phenylalanine Flux Assay
Settings: A375 cells expressing human R408W PAH; 24 hrs compound incubation; 13C-Tyrosine by LC-MS; average where tested multiple times; read-out: AC50
result type: AC50

Below are worked cases with known answers.
COc1ccc2c(C(=O)N3CCc4[nH]cnc4[C@H]3c3cc4c(C(F)(F)F)cccn4n3)cnn2c1 :: 0.5 to 1 µM
O=C(c1nnc(-c2ccn(C(F)F)n2)o1)N1CCc2[nH]cnc2[C@H]1c1cc2c(C(F)(F)F)cccn2n1 :: < 0.5 µM
Cc1cccn2nc([C@H]3c4nc[nH]c4CCN3C(=O)c3nnc(-c4ccc(C(F)(F)F)cn4)o3)cc12 :: > 5 µM

Input: Tell me the measured AC50 of Cc1cccn2nc([C@@H]3c4nc[nH]c4CCN3C(=O)c3oc(C(C)(C)O)nc3C(F)F)cc12 , please.
Output: < 0.5 µM

Input: // same read-out, input: CC(C)(C)c1nnc(C(=O)N2CCc3[nH]cnc3[C@H]2c2cc3ccc(F)cn3n2)o1
Output: 0.5 to 1 µM

Input: // same read-out, input: O=C(c1ccnn1C(F)F)N1CCc2[nH]cnc2[C@@H]1c1cc2ccccn2n1
Output: > 5 µM

Input: // same read-out, input: Cc1cnn(C)c1-c1nnc(C(=O)N2CCc3[nH]cnc3[C@@H]2c2cc3cccc(C(F)F)n3n2)o1
Output: > 5 µM

Input: // same read-out, input: CC1(c2nnc(C(=O)N3CCc4[nH]cnc4[C@@H]3c3cc4c(Cl)cccn4n3)o2)CC1
Output: 1 to 5 µM

Input: // same read-out, input: Cn1cnc(-c2nnc(C(=O)N3CCc4[nH]cnc4[C@H]3c3cc4cccc(C(F)(F)F)n4n3)o2)c1
Output: 0.5 to 1 µM

Input: // same read-out, input: COc1cccn2nc([C@@H]3c4nc[nH]c4CCN3C(=O)c3nnc(-c4ccn(C(F)F)n4)o3)cc12
Output: 0.5 to 1 µM

Input: // same read-out, input: Clc1cccn2nc([C@@H]3c4nc[nH]c4CCN3c3nnc(C4CC4)o3)cc12
Output: < 0.5 µM

Input: // same read-out, input: O=C(c1nnc(-c2ncccc2F)o1)N1CCc2[nH]cnc2[C@@H]1c1cc2c(F)cccn2n1
Output: > 5 µM

Input: // same read-out, input: O=C(c1nnc(-c2cccnc2)o1)N1CCc2[nH]cnc2[C@H]1c1cc2cccc(C(F)F)n2n1
Output: < 0.5 µM

Input: // same read-out, input: CC(C)(C)c1nnc(C(=O)N2CCc3[nH]cnc3[C@H]2c2cc3c(OC(F)F)cccn3n2)o1
Output: 0.5 to 1 µM

Input: // same read-out, input: O=C(c1nnc(C2CC2)o1)N1CCc2[nH]cnc2[C@H]1c1cc2c(C(F)F)cccn2n1
Output: < 0.5 µM

Input: // same read-out, input: COc1cccn2nc([C@H]3c4nc[nH]c4CCN3C(=O)c3nnc(C(C)(C)C)o3)cc12
Output: 1 to 5 µM

###

Biological target: human PAH with the R408W mutation (Homo sapiens, UniProt P00439, R408W)
Construct: expressed in transfected cells
Sequence (P00439 1-452 R408W): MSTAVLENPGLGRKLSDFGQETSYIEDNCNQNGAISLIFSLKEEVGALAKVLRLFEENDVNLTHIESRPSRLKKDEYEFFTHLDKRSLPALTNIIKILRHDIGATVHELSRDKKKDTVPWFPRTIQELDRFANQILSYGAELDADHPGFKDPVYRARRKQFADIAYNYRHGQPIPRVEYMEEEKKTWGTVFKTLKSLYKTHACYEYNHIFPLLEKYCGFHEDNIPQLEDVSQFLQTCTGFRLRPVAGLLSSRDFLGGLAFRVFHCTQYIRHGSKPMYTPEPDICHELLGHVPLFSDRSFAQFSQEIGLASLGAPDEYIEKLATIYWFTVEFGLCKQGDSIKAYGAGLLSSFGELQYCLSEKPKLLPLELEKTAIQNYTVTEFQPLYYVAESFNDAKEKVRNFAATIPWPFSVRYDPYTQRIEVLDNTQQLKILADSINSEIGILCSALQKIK
Assay: Cell Based Phenylalanine Flux Assay;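 further: after compound treatment, cells received sepiapterin plus isotope-labelled Phenylalanine for 4 hours, then labelled Tyrosine in the medium was quantified, 10-point 2-fold dilution series run in duplicate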
Conditions: A375 cells expressing human PAH R408W; 24 hrs compound incubation; 13C-Tyrosine by LC-MS; average where tested multiple times; read-out: AC50
result type: AC50

Below are worked cases with known answers.
O=C(c1nnc(-c2cnccn2)o1)N1CCc2[nH]cnc2[C@H]1c1cc2c(OC(F)F)cccn2n1 :: 1000 to 5000 nM
Nc1cc(C(=O)N2CCc3[nH]cnc3[C@H]2c2cc3ccccn3n2)n(C(F)F)n1 :: 1000 to 5000 nM
O=C(c1nc2ccccc2o1)N1CCc2[nH]cnc2[C@H]1c1cc2c(C(F)(F)F)cccn2n1 :: 500 to 1000 nM
Cc1cccn2nc([C@H]3c4nc[nH]c4CCN3c3nnc(-c4c(F)cccc4F)o3)cc12 :: > 5000 nM
Cc1nnc(C(=O)N2CCc3[nH]cnc3[C@H]2c2cc3c(C)cccn3n2)s1 :: 1000 to 5000 nM
COc1cccn2nc([C@@H]3c4nc[nH]c4CCN3c3ncc(C(F)(F)F)cn3)cc12 :: < 500 nM
Cc1nnc(C(=O)N2CCc3[nH]cnc3[C@H]2c2cc3c(C(C)C)cccn3n2)o1 :: < 500 nM

Next:
Input: Tell me the measured AC50 of Fc1cccn2nc([C@@H]3c4nc[nH]c4CCN3c3ccccn3)cc12 , please.
Output: 500 to 1000 nM
